targetOrSystem: Fructose-bisphosphate aldolase (Mycobacterium tuberculosis (strain ATCC 25618 / H37Rv)) (UniProt P9WQA3)
Sequence (P9WQA3 whole entry, looked up): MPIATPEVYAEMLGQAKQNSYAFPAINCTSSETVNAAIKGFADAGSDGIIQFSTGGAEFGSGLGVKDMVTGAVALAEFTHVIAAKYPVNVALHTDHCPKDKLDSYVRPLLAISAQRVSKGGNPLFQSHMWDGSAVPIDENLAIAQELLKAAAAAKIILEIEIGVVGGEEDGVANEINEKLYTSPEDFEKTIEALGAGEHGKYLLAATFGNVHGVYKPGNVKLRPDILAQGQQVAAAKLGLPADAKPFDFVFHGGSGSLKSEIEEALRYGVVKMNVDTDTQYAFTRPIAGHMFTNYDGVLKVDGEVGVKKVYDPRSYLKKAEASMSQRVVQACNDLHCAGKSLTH
test: Mtb FBA enzyme inhibitors, primary screen, biochemical, fluorescence, strain H37Rv (AID 588726);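 note: 0% = vehicle and 100% = reference inhibitor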
details: purified M. tuberculosis FBA, fluorescence read-out, at 1 µM, hits give high values
The campaign covered roughly 360,000 compounds. About 8,200 (2.3%) were called active. What follows is part of a selection rich in actives, with near analogues and random picks from the rest.
propertyLabel: inhibition (%)

[[record]]
molecule = "Cc1cc(C)c(-c2c(O)c3ccccc3n(C)c2=O)c(C)c1"
propertylabel = "inhibition"
value = 62.7

[[record]]
molecule = "COc1ccccc1NC(=O)COC(=O)COc1ccccc1F"
propertylabel = "inhibition"
value = -0.62

[[record]]
molecule = "Cn1c(=O)c(Sc2ccc(Cl)cc2)c(O)c2ccccc21"
propertylabel = "inhibition"
value = 2

[[record]]
molecule = "COc1cc(CO)ccc1OCC(=O)Nc1cccc2ccccc12"
propertylabel = "inhibition"
value = -1.87

[[record]]
molecule = "CC(C(=O)NCCc1ccc(S(N)(=O)=O)cc1)N1C(=O)CC(C)(C)Sc2ccccc21 (stereo unspecified)"
propertylabel = "inhibition"
value = 4.96

[[record]]
molecule = "Cn1c(=O)c(C(=O)Nc2ncccn2)c(O)c2ccccc21"
propertylabel = "inhibition"
value = 7.7


// data source = PubChem BioAssay AID588726
